Tested on: NCI-H23 lung
method-summary: NCI tumour cell line growth inhibition, 48 h
measurement-name: GI50

Please look at this molecule and report its GI50: Oc1[nH]c2ccccc2c1/C=c1/ccc2c(c1)N=C(c1ccc(C(F)(F)F)cc1)N=2
3390 nM

Give recorded GI50. COc1cc2c3c(n(CCCNCCCNCCN)c(=O)c2cc1OC)-c1cc2c(cc1C3=O)OCO2
24700 nM

Given the molecule COc1cc2ncnc(Nc3ccc(Oc4ccnc(C)c4)c(C)c3)c2cc1NC(=O)CC1CCSS1 (stereo not given) , write its reported GI50.
1070 nM

Quickly give me recorded GI50 for CS(=O)(=O)c1cccc(Nc2ncc3cc(-c4ccccc4Cl)ccc3n2)c1
1980 nM

Provide one value: measured GI50 of O=C(Nc1cc(Cl)ccc1O)c1cccc(Nc2ccnc(C(F)(F)F)c2)c1
771 nM

Name the recorded GI50 of the item COc1ccc2c(O)c(/C=C3\N=Nc4ncccc43)oc2c1C[C@@H]1CCNC[C@H]1F in your answer.
861 nM

Consider the molecule Fc1ccc(-c2nn3ccccc3c2-c2ccncc2)cc1 and give its recorded GI50.
> 25000 nM

Provide measured GI50 value, entry: N=C(N)c1ccc(-c2ccc(-c3ccc4ccccc4c3)s2)s1
2960 nM

# return recorded GI50 for entry C/C=C/C(=O)[O-].C/C=C/C(=O)[O-].N.N.N.N.[Co+3].[O-][Cl+3]([O-])([O-])[O-]
> 100000 nM

Fill in GI50 for record CCCCCCCCCCNCCSS(=O)(=O)O
1900 nM

Data provenance: PubChem BioAssay (NCI)
